Biological target: Neuropeptide Y receptor type 5 (Rattus norvegicus)
Sequence (Q63634 whole entry): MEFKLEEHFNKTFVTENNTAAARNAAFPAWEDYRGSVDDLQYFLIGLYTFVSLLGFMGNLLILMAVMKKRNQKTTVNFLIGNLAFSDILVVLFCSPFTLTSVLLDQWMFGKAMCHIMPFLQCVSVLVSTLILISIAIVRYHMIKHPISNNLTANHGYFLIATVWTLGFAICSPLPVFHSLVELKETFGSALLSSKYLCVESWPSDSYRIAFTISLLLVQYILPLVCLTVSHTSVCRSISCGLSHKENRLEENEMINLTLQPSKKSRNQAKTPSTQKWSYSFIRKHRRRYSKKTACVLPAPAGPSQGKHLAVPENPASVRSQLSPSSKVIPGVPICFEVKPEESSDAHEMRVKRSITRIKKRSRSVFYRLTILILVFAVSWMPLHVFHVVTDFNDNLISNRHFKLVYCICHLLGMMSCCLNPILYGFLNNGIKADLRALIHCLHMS
// note: IC50 values for Neuropeptide Y receptor type 5 (Rattus norvegicus) were reported in different studies
value type: IC50 (nM)

>>> endpoint_result("Cc1ccc2c(c1)-c1nc(NCC3CCN(C(=O)[C@H]4CCCO4)CC3)sc1CCO2")
2.9
>>> endpoint_result("O=C1O[C@]2(CC[C@H](C(=O)Nc3ccn(-c4ccccc4F)n3)CC2)c2cnccc21")
2.1
>>> endpoint_result("O=C1O[C@]2(CC[C@H](C(=O)Nc3ccn(-c4ccccc4)n3)CC2)c2cccnc21")
1.7
>>> endpoint_result("CCn1c2ccccc2c2cc(NC(=O)CCc3ccncc3)ccc21")
7
>>> endpoint_result("Cc1cc(N2CCCC2)cc(/C=C/c2cccc(C(F)(F)F)c2)n1")
4.1
>>> endpoint_result("O=C1O[C@]2(CC[C@H](C(=O)Nc3ccn(-c4ccc(F)cc4)n3)CC2)c2cnccc21")
2.1
>>> endpoint_result("O=C1O[C@]2(CC[C@H](C(=O)Nc3cnn(-c4ccccc4)c3)CC2)c2cccnc21")
4.7
